Each entry below lists one item and its recorded Ki value.
target under test: Prostaglandin D2 receptor 2 (Homo sapiens)
Sequence (Q9Y5Y4 whole entry): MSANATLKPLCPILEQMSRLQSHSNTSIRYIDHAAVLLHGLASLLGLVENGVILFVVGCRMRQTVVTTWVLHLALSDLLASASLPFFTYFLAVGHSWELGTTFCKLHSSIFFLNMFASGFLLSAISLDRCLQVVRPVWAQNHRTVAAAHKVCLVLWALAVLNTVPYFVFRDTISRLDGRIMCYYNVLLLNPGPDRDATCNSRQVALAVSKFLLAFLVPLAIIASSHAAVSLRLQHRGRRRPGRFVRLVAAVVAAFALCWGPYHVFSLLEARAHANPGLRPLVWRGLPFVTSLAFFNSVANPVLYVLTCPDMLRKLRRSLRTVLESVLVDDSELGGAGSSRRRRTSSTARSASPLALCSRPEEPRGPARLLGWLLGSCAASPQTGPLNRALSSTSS
assay comment: Displacement of [3HPGD2 from human CRTH2 receptor expressed in CHO cell membrane after 90 mins by scintillation proximity assay
reported metric: Ki (nM)

# smi, units text, quantitative readout
data = [
    ("CCCCC(=O)N(Cc1cccs1)c1cccc(-c2nnn[nH]2)c1", "nM", 620),
    ("C#Cc1cccc(CN(C(=O)CCCC)c2cc(-c3nnn[nH]3)ccc2F)c1", "nM", 10),
    ("CCCCC(=O)N(Cc1ccc(OC(F)(F)F)cc1)c1cc(Cl)cc(-c2nnn[nH]2)c1", "nM", 19),
    ("CCC(=O)N(Cc1ccc(O)cc1)c1cc(F)cc(-c2nnn[nH]2)c1", "nM", 22),
    ("CCCCC(=O)N(Cc1ccc(OC)cc1)c1cccc(-c2nnn[nH]2)c1", "nM", 50),
    ("CCCC(=O)N(Cc1ccc2c(c1)OCCO2)c1cccc(-c2nnn[nH]2)c1", "nM", 12),
]
